assay: soluble on expression in E. coli; label from the status in PepcDB or PDB records
measured.endpoint: soluble on expression in E. coli

sequence.chain: MYPVDLHMHTVASTHAYSTLSDYIAQAKQKGIKLFAITDHGPDMEDAPHHWHFINMRIWPRVVDGVGILRGIEANIKNVDGEIDCSGKMFDSLDLIIAGFHEPVFAPHDKATNTQAMIATIASGNVHIISHPGNPKYEIDVKAVAEAAAKHQVALEINNSSFLHSRKGSEDNCREVAAAVRDAGGWVALGSDSHTAFTMGEFEECLKILDAVDFPPERILNVSPRRLLNFLESRGMAPIAEFADL
measured.endpoint: soluble on expression in E. coli
value.observed: soluble
//
sequence.chain: MEASDLTFTVSVDQTTKHVFDAICNVRGWWSEEIEGNTDKRNETFIYQYEDVHYAKIKVQELIPNEKVVWLVTYNYFKFTKDKSEWTGTTIRFDISAKGDKTEIRFTHYGLNPEFECYDICSNAWGQYIGQSLPDLIKSGKGNPNGKNKPTTADEERFSAKNLEHHHHHH
measured.endpoint: soluble on expression in E. coli
value.observed: soluble

----------
assay: soluble on expression in E. coli; label from the status in PepcDB or PDB records

sequence.chain: AKPVTSETMAAKTVGLQIYSLGKELYADVPGGLKKIKQMGYTNLELAGYKEGKIGGVDMMEFKKMVDDAGLKITSSHVNPPVREYTKANRSQISEYWKKTADDHAKLGVKYLIQPGQPSTRSTEETAFVCEIFNEAGKIVKAAGIPFGYHNHEMEFAKVNPGSTEAKLGRRVKGDCIYELFLKNTDPSLVFFEMDVYWAVMGQQDPIEWLKKYPNRIKVLHIKDRAILGESGMMNFENIFRQAYANGIKDYFVELEGMPDGRSQFEGVKGCVDYLLKAPFVK
soluble on expression in E. coli: soluble
//
sequence.chain: KELKIILLTDMHVGSLLQKDFVDYIVEEVNQKEVDMVLIGGDLVDESIEKVKSFLLPLNNLKSTHGTFYVPGNHEYYHGIEPILSFLDTLNLTILGNECVHLGGINLCGVYDYFARKRQNFAPDIDKALKKRNESKPTILLAHQPKQIRSLKESHSVDLVLSGHTHAGQIFPFSLLVKLAQTYLHGLYKHSP
soluble on expression in E. coli: not soluble
//
sequence.chain: MAKPSDSADICQAPVQTAQAPLPKDSALDDLIGYAMRRAQLKLFQNLIGRLSAHDLRPAQFSALAIIEQTPGLMQADLAKALAIEPPQVVPLLNKLEERALAVRVRCKPDKRSYGIFLSKTGETLLRELKQIAVDSDLDSTSALDNQERNDLLRLLKKVYQS
soluble on expression in E. coli: not soluble
//
sequence.chain: MAPPAQPPPVAVKNTKEAWTKFMKKKAEQAVYPSKESSTLQPKYLFDASTLVLPMCFECRRASRHLEMAINLCSICRANFEAQIASRFFRHDVLLVKRKLEANQDTTNLKE
soluble on expression in E. coli: not soluble
//
sequence.chain: MTQTYNADAIEVLTGLEPVRRRPGMYTDTTRPNHLGQEVIDNSVDEALAGHAKRVDVILHADQSLEVIDDGRGMPVDIHPEEGVPAVELILCRLHAGGKFSNKNYQFSGGLHGVGISVVNALSKRVEVNVRRDGQVYNIAFENGEKVQDLQVVGTCGKRNTGTSVHFWPDETFFDSPRFSVSRLTHVLKAKAVLCPGVEITFKDEINNTEQRWCYQDGLNDYLAEAVNGLPTLPEKPFIGNFAGDTEAVDWALLWLPEGGELLTESYVNLIPTMQGGTHVNGLRQGLLDAMREFCEYRNILPRGVKLSAEDIWDRCAYVLSVKMQDPQFAGQTKERLSSRQCAAFVSGVVKDAFILWLNQNVQAAELLAEMAISSAQRRMRAAKKVVRKK
soluble on expression in E. coli: soluble
//
sequence.chain: MKIMCKQEYYNQVVQYAESIKDTSLQNCMERLEAWEKNPDRPCEIELYHDWAPYSFGFTQRYPDGSRGIVGGLLYHGSPDESFAVQLTPFKGWQIHT
soluble on expression in E. coli: not soluble
//
sequence.chain: MGSDKIHHHHHHMSDTLTDSRIVYFYEAVRCGTIRAAADWLDVAPSAVSRQIGLLEKELDATLVERHARGVTPTDAGRCVIEYFREQLAHRDDLISRLQELRGLKTGQVSLVLGEGFVSDLLAGPMQQFCRQFPGIRVNLDVGSTNDVIRKISNDEGEIGLVYNPPAEPKLVSRASKRQPMMAIVGPDFPRRSHKVLTVQQLATYPMAATHPSYGTRQMMEAVEYAERVRLAPIITTNSFAILKEFVKSGLGISVMPAFAVAAELQAKELFAIEIAHPILENAEAHMVTRVGRKLSVAANKMLQMMTGQMRAFR
soluble on expression in E. coli: not soluble
//
sequence.chain: MAHHHHHHMLDFLDTINKYTLRSGSVTHIGGKISKKCAAQLVGSLVLQGRLNHYCAALAAQFMVSSEVLVVASRDAVQGISCEGCTLERQNLSSVPDTGEIFGVATTGNNVVVGYSAGVAMFSCKLELEKIYTLSEYTNSILGIAVTPDGSCLATGGANAIVTVWSRDMNPVHYLAGHTDWVRFVKFTIMDGRGLELFSTGDDGLVLHWDPLVGTLLSRIDFFHGQDIHAFEVSWRTGLIGIARDTPTICLYKPQISGIASNHAVGAVRLEQIGRIDDAHHSVLTALRFSNDSQWIVSAGEDETLSVSSVCQLKRVFVCETFIVRRHCMTFMNTFTSVCVLASPPESSAIIVVACATDGTVVQWVVNPETFKCTYTKKLQLL
soluble on expression in E. coli: not soluble
//
sequence.chain: PRLLCTATKQKNSGQNLEEDMGQSEQKADPPATEKTLLEEKVKLEEQLKETVEKYKRALADTENLRQRSQKLVEEAKLYGIQAFCKDLLEVADVLEKATQCVPKEEIKDDNPHLKNLYEGLVMTEVQIQKVFTKHGLLKLNPVGAKFDPYEHEALFHTPVEGKEPGTVALVSKVGYKLHGRTLRPALVGVVKEA
soluble on expression in E. coli: not soluble
//
sequence.chain: MSLVFYGRRLTEAIEVLKQSKISIMLANKGPLIYYRRTGGFPEGPVEKALGLSSLDDLVICPVHSVQPEVSTYLLLRLRTPFIIPPRSTATIYLKAPVAAGVYVTANGEQRLVDYFGPSVFKYALYGPPAVGQVCRFYITDIFSEVPEAGPWEAVTKVVVENTSDNYVEIRNVIYPIVYAQFYIDNMGNAYLETSKLSITSSNVGVVELRNEPPISGLPTCLKTEGGLPLPFLKPAGEKIAKFLMEFGLEGHHHHHH
soluble on expression in E. coli: not soluble
//
sequence.chain: MKLRLSALALGTTLLVGCASSGTDQQGRSDPLEGFNRTMYNFNFNVLDPYIVRPVAVAWRDYVPQPARNGLSNFTGNLEEPAVMVNYFLQGDPYQGMVHFTRFFLNTILGMGGFIDVAGMANPKLQRTEPHRFGSTLGHYGVGYGPYVQLPFYGSFTLRDDGGDMADGLYPVLSWLTWPMSVGKWTLEGIETRAQLLDSDGLLRQSSDPYIMVREAYFQRHDFIANGGELKPQENPNAQAIQDDLKDIDSE
soluble on expression in E. coli: not soluble
//
sequence.chain: MRDNPLVSILIPTFNRPMLLEKSLRSAVNQTYKNIEIVICDDSTNYDSKTVVESYMKRYKNIRYYFNNGPLGNFGLNNVKKCYELSKGEYINYLNDDDMFHKSKIMRMIRYFQNYKKITLVTSHRSVIDKNDNILPDINATKRIRYLNRPVSGRIIAKLMFNLGNFIGEPTTVLFKKSDVKNFGSLNGKQYYSLIDAATWFELLSKGYCVYIADTLSYFRIHEGQNTNRPEVSGRFLLEWKDLNDYGYRKKIIDSEFYKRFLLSFKKEYEKPKLEHHHHHH
soluble on expression in E. coli: not soluble
